Collected Plant response rating, Ragweed values appear next to each entry.
Test system: ragweed (common ragweed, Ambrosia elatior)
assayInfo: Test A postemergence
Format: in vivo
particulars: 500 g ai/ha, postemergence; visual injury, 0 to 100 scale (0 no effect, 100 complete control), approx. 10 d
Quick one: just the number, no unit, thanks!

Examples with answers:
O=C1NCC(c2cccc(Br)c2)C1C(=O)Nc1cccc(F)c1F (racemic) [Compound 688]    50
O=C1NCC(c2cccc(OC(F)(F)C(F)F)c2)C1C(=O)Nc1ccccc1F (racemic) [Compound 695]    40
CC(C)Oc1cccc(C2CN(C)C(=O)C2C(=O)Nc2ccccc2C(F)(F)F)c1 (stereo not shown) [Compound 652]    0

The value of Plant response rating, Ragweed measured for the compound Cc1cccc(C2CN(C)C(=O)C2C(=O)Nc2cccc(F)c2F)c1 (stereo not shown) [Compound 667] turned out to be 50

These measurements were taken from patent US12077503B2.
